- System: 845751-090-R-J2-PDC tumor spheroid viability;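 note: spheroids exposed to compounds for 7 days before readout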
- assay.text: Anticancer human tumor 845751-090-R-J2-PDC patient-derived head and neck squamous carcinoma cell line growth inhibition [IpAb]; active = viability on the fitted dose curve at most 10% of control; inactive = the rest
- assay.conditions: second compound 0.316 µM; first compound 0.949 µM; spheroids with HUVEC and MSC
Just give me one of these, please: active, inactive

molecule	category
CC(C)(C)c1cnc(CSc2cnc(NC(=O)C3CCNCC3)s2)o1 + CC(C)NCC(C(=O)N1CCN(c2ncnc3c2C(C)CC3O)CC1)c1ccc(Cl)cc1	active

What is the recorded call for this molecule in the test? CC(C)(C)c1cnc(CSc2cnc(NC(=O)C3CCNCC3)s2)o1 + CCN1CCN(Cc2ccc(Nc3ncc(F)c(-c4cc(F)c5nc(C)n(C(C)C)c5c4)n3)nc2)CC1
active

What is the recorded call for this molecule in the test? Cn1cnc2c(F)c(Nc3ccc(Br)cc3Cl)c(C(=O)NOCCO)cc21 + CC(C)NCC(C(=O)N1CCN(c2ncnc3c2C(C)CC3O)CC1)c1ccc(Cl)cc1
active

What is the recorded call for this molecule in the test? Cn1cnc2c(F)c(Nc3ccc(Br)cc3Cl)c(C(=O)NOCCO)cc21 + CCN1CCN(Cc2ccc(Nc3ncc(F)c(-c4cc(F)c5nc(C)n(C(C)C)c5c4)n3)nc2)CC1
inactive
